Biological target: T1, NHERF3_4, Q5T2W1
T1 sequence (Q5T2W1 373-468, limits assumed, looked up): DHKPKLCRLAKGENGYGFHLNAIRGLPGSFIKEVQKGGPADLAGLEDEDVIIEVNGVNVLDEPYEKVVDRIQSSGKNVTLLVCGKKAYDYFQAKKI
Assay: holdup assay
Set-up: key: below the threshold = too weak to quantify, mostly under pKd 3.1 to 4
Details: plain residues with an end cap or a label only (N-terminal biotin on a linker: ado-ado)
measurementKind: pKd

binder	pKd
IPLDGETEEL [MYOZ1, Q9NP98]	below the threshold
VNKSKLLTDV [KCNA1, Q09470]	below the threshold
QKNRKAQEDL [CES3, Q6UWW8]	below the threshold
RHGSCVETSL [TMEM151B, Q8IW70]	3.95
EVEEFPETSV [TRPV3, Q8NET8]	below the threshold
LRSPRTPSEV [OR10G3, Q8NGC4]	below the threshold
ETQVTAETVI [TMEM225B, P0DP42]	below the threshold

Then this binder:
Prompt: Report measured pKd; entry is NLSIEKETKL [ASNSD1, Q9NWL6]
Completion: 4.13
